FYI, the data here is from patent US20140072563A1.

# Target Of Assay: hErbB3.mmh (soluble monomeric human ErbB3 extracellular domain with C-terminal myc-myc-hexahistidine tag) (human, UniProt P21860 20-642)
# Sequence (P21860 other isoform, or with tags, fused parts or gaps): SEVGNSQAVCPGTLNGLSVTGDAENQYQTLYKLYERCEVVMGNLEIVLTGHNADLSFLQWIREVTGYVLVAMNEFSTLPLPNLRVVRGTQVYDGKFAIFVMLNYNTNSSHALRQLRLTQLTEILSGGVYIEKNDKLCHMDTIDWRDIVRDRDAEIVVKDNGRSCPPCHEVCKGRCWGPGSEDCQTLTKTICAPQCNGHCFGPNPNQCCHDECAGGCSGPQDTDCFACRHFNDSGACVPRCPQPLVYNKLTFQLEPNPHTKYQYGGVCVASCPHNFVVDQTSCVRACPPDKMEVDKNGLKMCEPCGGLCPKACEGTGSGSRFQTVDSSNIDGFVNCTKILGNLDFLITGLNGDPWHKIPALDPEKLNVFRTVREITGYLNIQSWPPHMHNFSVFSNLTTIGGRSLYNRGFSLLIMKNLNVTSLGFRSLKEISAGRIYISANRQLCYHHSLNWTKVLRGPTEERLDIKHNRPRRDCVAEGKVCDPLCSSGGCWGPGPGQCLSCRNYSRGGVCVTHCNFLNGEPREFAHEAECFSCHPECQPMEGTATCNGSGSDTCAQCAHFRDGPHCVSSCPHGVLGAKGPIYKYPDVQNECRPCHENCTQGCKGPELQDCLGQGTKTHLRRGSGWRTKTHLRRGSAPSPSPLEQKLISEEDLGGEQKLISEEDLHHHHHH
# Protocol: SPR (Biacore), 25 C, mAb capture format
Note to self: values exactly at 200000 M⁻¹ s⁻¹ are Yes. So kon at or above 200000 M⁻¹ s⁻¹ is Yes, below is No.

| Binder | Class Label |
| --- | --- |
| H4H2111P (antibody, V domains shown, Fully human, human IgG4 Fc (H4H prefix)) VH: QVQLVESGGGVVQPGRSLRLSCAASGFTFNNYGMHWVRQAPGKGLAWVAVMWYSESHKYYADSVKGRFTISRDNSKNTLYLEMNSLRVEDTAIYYCARDLGDPDAFDIWGQGTMVTVSS VL: DIQLTQSPSFLSASVGDRVTITCWASQGISSYLAWYQQKPGKAPKLLIYGASTLQSGVPSRFSGSGSGTEFTLTISSLQPEDFATYYCQQLNSYPLTFGGGTKVEIKR | Yes |
| H2M1936N (antibody, V domains shown, Hybridoma chimeric antibody: human variable domains, mouse IgG2 Fc (H2M prefix)) VH: EMQLVESGGGLVQPDRSLRLSCAASGFNFDNYAIHWVRQAPGKGLEWVSGISWNSGNIGYADSVKGRFTISRDNAKNSLFLLMNSLRPDDSALYYCTRGYNWNALSPMDVWGQGTTVTVSS VL: DIQMTQSPSSLSASVGDRVTVTCRASQGISNYLAWYQQKPGKVPKLLIYAASTLQSGVPSRFSGSGSGTDFTLTISSLQPEDVASYYCQNYNSAPMTFGQGTKVEIK | No |
| H2M1938N (antibody, V domains shown, Hybridoma chimeric antibody: human variable domains, mouse IgG2 Fc (H2M prefix)) VH: EVQLVESGGGVVRPGGSLRLSCAASGFTFDDYGMSWVRQVPGKGLEWVSGLNWNGGITGYTDSVKGRFTISRDNAKNSLYLQMNSLRAEDTAFYHCARDSGDQDAFDIWGQGTMVTVSS VL: QIVMTQSPATLSVSPGERATLSCRASQSITPYLAWYQQKPGQTPRLLIYGVSTRATGIPARFSGSGSGTEFTLTISSLQSEDFAVYYCQQYDNWYTFGQGTKLEIK | Yes |
| H4H2132P (antibody, V domains shown, Fully human, human IgG4 Fc (H4H prefix)) VH: EVQLVESGGGVVRPGGSLRLSCAASGFTFDDYGMSWVRQFPGKGLEWVSSIDGNGGNTGYSDSVKGRFTISRDNAKNSLHLQMNSLRAEDTALYHCARDPDYDSVWGNYRPFDYWGQGTLVTVSS VL: DIVMTQSPDSLAVSLGERATINCKSSQSVLSSSNDNNYLAWFQQKPGQPPNLLIYWASTRDSGVPDRFSASGSGTDFTLAISSLQAEDVAVYYCHQYYSSPPTFGQGTKVEIKR | Yes |

### Prompt Would you say H2M1827N (antibody, V domains shown, Hybridoma chimeric antibody: human variable domains, mouse IgG2 Fc (H2M prefix)) VH: EVQLVESGGGVVRPGGSLRLSCAASGFTFDDYGMSWVRQAPGKGLECVSGISWNGGNTDYADSVKGRFTISRDNAKNSLYLQMNSLRAEDTALYHCARDGGDWDYFDLWGRGTLVTVSS VL: EILMTQSPATLSVSPGERATLSCRASQSVSSNLAWYQQKPGQAPRLLIYGASTRATGIPARFSGSGSGTEFTLTISSLQSEDFAIYYCQEYNDWPLTFGGGTKVEIK shows kon at minimum 200000 M⁻¹ s⁻¹?
### Response Yes
